Measured pEC50, listed per entry.
system: SARS-CoV-2; assay: Antiviral potency against SARS-CoV-2 in Vero-E6 cells (protection from virus-induced cytopathic effect / intracellular viral antigen accumulation); format: cell-based; settings: Severe acute respiratory syndrome coronavirus 2, Vero C1008; SARS-CoV-2 strain NL/2020, Vero-E6 cells; mean; read-out: EC50 mean
On this scale, pEC50 is minus log10 of a concentration expressed in M (mol/L).

- Compound: "CC(C)(C)OC(=O)NCCCC[C@H]1C(=O)NC[C@H]([C@H](Cc2cn(C(=O)OC(C)(C)C)c3ccccc23)NC(=O)OC(C)(C)C)N1Cc1ccccc1 [Example 3]"
  Tested target: "SARS-CoV-2"
  Measured parameter: "pEC50"
  Readout value: 5.20
- Compound: "CC(C)(C)OC(=O)CN1[C@@H]([C@H](Cc2cn(C(=O)OC(C)(C)C)c3ccccc23)NC(=O)OC(C)(C)C)CNC(=O)[C@@H]1CCCCNC(=O)OC(C)(C)C [Example 5]"
  Tested target: "SARS-CoV-2"
  Measured parameter: "pEC50"
  Readout value: 5.71
- Compound: "CC(C)(C)OC(=O)CN1[C@@H](CCCCNC(=O)OC(C)(C)C)C(=O)NC[C@H]1[C@H](Cc1cn(C(=O)OC(C)(C)C)c2ccccc12)NC(=O)OC(C)(C)C [Example 6]"
  Tested target: "SARS-CoV-2"
  Measured parameter: "pEC50"
  Readout value: 5.50

Here is the next item to consider.
Challenge: Sample CC(C)(C)OC(=O)NCCCC[C@@H]1N[C@H]([C@H](Cc2cn(C(=O)OC(C)(C)C)c3ccccc23)NC(=O)OC(C)(C)C)CNC1=O [Example 2] — what was its pEC50?
Response given: 4.81

###

Measured % Reduction of hCoV-229E-GFP propagation, listed per entry.
test system: hCoV-229E-GFP; type: cell-based, Human coronavirus 229E
Write the number in % without appending the unit.

Solved cases (3 shown):
- Compound: "CC(C)(C)OC(=O)CN1[C@@H](CCCCNC(=O)OC(C)(C)C)C(=O)NC[C@H]1[C@H](Cc1cn(C(=O)OC(C)(C)C)c2ccccc12)NC(=O)OC(C)(C)C"
  Tested target: "hCoV-229E-GFP"
  Readout value: 98
- Compound: "CC(C)(C)OC(=O)CN1[C@@H]([C@H](Cc2cn(C(=O)OC(C)(C)C)c3ccccc23)NC(=O)OC(C)(C)C)CNC(=O)[C@@H]1CCCCNC(=O)OC(C)(C)C"
  Tested target: "hCoV-229E-GFP"
  Readout value: 94
- Compound: "CC(C)(C)OC(=O)NCCCC[C@H]1C(=O)NCC([C@H](Cc2cn(C(=O)OC(C)(C)C)c3ccccc23)NC(=O)OC(C)(C)C)N1Cc1ccccc1 (stereo in doubt)"
  Tested target: "hCoV-229E-GFP"
  Readout value: 97

Here is the next item to consider.
Challenge: Sample CC(C)(C)OC(=O)NCCCC[C@H]1C(=O)NC[C@H]([C@H](Cc2cn(C(=O)OC(C)(C)C)c3ccccc23)NC(=O)OC(C)(C)C)N1Cc1ccccc1 — what was its % Reduction of hCoV-229E-GFP propagation?
Response given: 94

Measured values drawn from patent EP4000623A1 for this set.
